- test: Phase 1 plasma pharmacokinetics
- Format: in vivo, human
- details: human, plasma, oral, 80 mg, AUC0-t, Mean ± SD, abexinostat continuous administration (BID, 4-h interval) on C1D1, 80 mg (n = 4)
measureName: AUC(0-t) (ng·h/mL)
Express your answer in ng·h/mL, writing the number without its unit.

Exercise: May I ask what AUC(0-t) has been recorded for CN(C)Cc1c(C(=O)NCCOc2ccc(C(=O)NO)cc2)oc2ccccc12 [abexinostat, Abexinostat] ?
Key: 603

----------
- test: Phase 1 plasma pharmacokinetics
- Format: in vivo, human
- details: human, plasma, oral, 60 mg, Tmax, Median, abexinostat continuous administration (BID, 4-h interval) on C1D1, 60 mg (n = 3), plasma; abexinostat value footnoted: 0.5 h after second dose
measureName: Tmax (h)
Give just the number in h; leave the unit off.

Exercise: For the compound CN(C)Cc1c(C(=O)NCCOc2ccc(C(=O)NO)cc2)oc2ccccc12 , what Tmax is on record?
Key: 4.55

Origin of the recorded values: paper PMC12123727
